Where do these numbers come from? They come from ChEMBL document CHEMBL1961873.

biological target: Tyrosine-protein kinase BTK (Homo sapiens); details: at 0.1 µM
Property label: inhibition (%)
Give the number; % is assumed, so skip it.

Compound	Property label	Numeric readout
[O-][S+]1CCN(Cc2ccc(-c3ccc4ncnc(Nc5ccc(OCc6ccccc6)c(F)c5)c4c3)o2)CC1	inhibition	1.11

## Input Would you kindly share the measured inhibition for CCn1c(-c2nonc2N)nc2cnc(Oc3cccc(NC(=O)c4ccc(OCCN5CCOCC5)cc4)c3)cc21 ?
## Output -1.45

## Input Would you kindly share the measured inhibition for NC(=O)c1cccc(Nc2nccc(Nc3cccc4[nH]ncc34)n2)c1 ?
## Output 3.23

## Input Would you kindly share the measured inhibition for COc1cc2c(cc1Nc1nc(N3CCc4ccccc43)c3cc[nH]c3n1)N(C(=O)CN(C)C)CC2 ?
## Output 1.01

## Input Would you kindly share the measured inhibition for COc1ccc(-c2nn3ncccc3c2-c2ccnc(Nc3ccc(Cl)c(C(F)(F)F)c3)n2)cc1 ?
## Output 0.66

## Input Would you kindly share the measured inhibition for Nc1nc(-c2ccccn2)c(-c2ccc3ncccc3n2)s1 ?
## Output 1.06

## Input Would you kindly share the measured inhibition for Cc1nnc(-c2ccc(C)c(-c3ccc(C(=O)Nc4cccc(C#N)c4)cc3)c2)o1 ?
## Output -0.22

## Input Would you kindly share the measured inhibition for CC1=C(C(=O)Nc2ccc3[nH]ncc3c2)C(c2ccc(F)cc2)NC(=O)N1 (stereo not drawn) ?
## Output -0.15

## Input Would you kindly share the measured inhibition for Cc1cc(O)cc(C)c1/C=C/c1cncc(-c2nn[nH]n2)c1 ?
## Output -0.39

## Input Would you kindly share the measured inhibition for CCn1c(-c2nonc2N)nc2c(C#CC(C)(C)O)nc(OC[C@@H](N)c3ccccc3)cc21 ?
## Output -0.1

## Input Would you kindly share the measured inhibition for COc1cc2ncn(-c3cc(O[C@@H](C)c4ccccc4Cl)c(C(N)=O)s3)c2cc1OC ?
## Output -0.58

## Input Would you kindly share the measured inhibition for O=C1NC(=O)C(c2ccc(Cl)cc2)=C1Nc1ccc(Cl)c(C(=O)O)c1 ?
## Output -0.05

## Input Would you kindly share the measured inhibition for CS(=O)(=O)CCNCc1ccc(-c2ccc3ncnc(Nc4ccc(OCc5cccc(F)c5)c(C(F)(F)F)c4)c3c2)o1 ?
## Output 0.73

---

biological target: Tyrosine-protein kinase BTK (Homo sapiens); conditions: at 1 µM
Property label: inhibition (%)
Give the number; % is assumed, so skip it.

# count of solved cases: 8
Compound	Assay system	Property label	Numeric readout
Nc1ncnc2occ(-c3ccc(NC(=O)Nc4cccc(C(F)(F)F)c4)cc3)c12	Tyrosine-protein kinase BTK (Homo sapiens)	inhibition	6.68
CCN1CCC(CC(=O)Nc2n[nH]c3nc(-c4cccs4)c(Br)cc23)CC1	Tyrosine-protein kinase BTK (Homo sapiens)	inhibition	0.05
COc1cc2ncn(-c3cc(O[C@H](C)c4ccccc4Cl)c(C(N)=O)s3)c2cc1OC	Tyrosine-protein kinase BTK (Homo sapiens)	inhibition	6.48
COC(=O)Nc1nc2cc(Oc3ccc(NC(=O)Nc4cccc(C(=O)O)c4)cc3)ccc2[nH]1	Tyrosine-protein kinase BTK (Homo sapiens)	inhibition	-2.57
[O-][S+]1CCN(Cc2ccc(-c3ccc4ncnc(Nc5ccc(OCc6ccccc6)c(F)c5)c4c3)o2)CC1	Tyrosine-protein kinase BTK (Homo sapiens)	inhibition	1.74
c1cnn2ncc(-c3ccnc(Nc4ccc5c(c4)OCCO5)n3)c2c1	Tyrosine-protein kinase BTK (Homo sapiens)	inhibition	3.99
CC1=C(C(=O)Nc2ccc3[nH]ncc3c2)C(c2ccc3ccccc3c2)CC(=O)N1 (stereo unspecified)	Tyrosine-protein kinase BTK (Homo sapiens)	inhibition	11.4
COc1ccc(-c2coc3ncnc(N)c23)cc1	Tyrosine-protein kinase BTK (Homo sapiens)	inhibition	2.7

Shifting focus to the compound that follows.
## Input Would you kindly share the measured inhibition for CNC(=O)c1cncc(/C=C/c2c(Cl)cccc2Cl)c1 ?
## Output 0.37
